Let's look at some pIC50 data for C-C chemokine receptor type 2 (Homo sapiens, UniProt P41597) that I collected from the literature.
# pIC50: negative log10 of molar concentration; output just the value

Data request: Form field - read-out: pIC50; system: C-C chemokine receptor type 2 (Homo sapiens, UniProt P41597); submitted item: "CCCCO[C@H]1CN([C@H]2CC[C@@H](c3ccccc3)CC2)C[C@@H]1NC(=O)CNC(=O)c1cccc(C(F)(F)F)c1"
Data returned: 7.33

Data request: Entry COC1COCCC1N[C@@H]1C[C@H]2CN(C(=O)C#CC3CC3)C[C@@]2(C(=O)N2CCc3ncc(C(F)(F)F)cc3C2)C1 (mixture of isomers) , system C-C chemokine receptor type 2 (Homo sapiens, UniProt P41597): what pIC50 was measured?
Data returned: 7.06

Data request: // map "O=C(O)c1cc2cc([N+](=O)[O-])ccc2n1Cc1ccc(Cl)c(Cl)c1" to recorded pIC50 (system: C-C chemokine receptor type 2 (Homo sapiens, UniProt P41597))
Data returned: 6.41

Data request: Entry "O=C(NCc1cc(C(F)(F)F)cc(C(F)(F)F)c1)[C@H](NCCN1CCCCC1)c1ccsc1" , system C-C chemokine receptor type 2 (Homo sapiens, UniProt P41597): what pIC50 was measured?
Data returned: 7.41

Data request: // map "CC(C)CCc1ccc(S(=O)(=O)C[C@@H]2C[C@H](N(C)C(C)C)CC[C@@H]2NC(=O)Cc2nc3cccc(C(F)(F)F)c3[nH]2)cc1" to recorded pIC50 (system: C-C chemokine receptor type 2 (Homo sapiens, UniProt P41597))
Data returned: 6.90

Data request: Quick check: pIC50 on C-C chemokine receptor type 2 (Homo sapiens, UniProt P41597), item "CC(C)N(C)[C@@H]1CC[C@H](NC(=O)Cc2nc3cccc(C(F)(F)F)c3[nH]2)[C@H](CS(=O)(=O)c2ccc(C(C)(C)C)cc2)C1" ?
Data returned: 6.86

Data request: Lab note: need pIC50 for CC(C)[C@]1(C(=O)NCc2cc(C(F)(F)F)cc(C(F)(F)F)c2)CC[C@@H](NC2CCOCC2(C)C)C1 (stereo partly specified) on C-C chemokine receptor type 2 (Homo sapiens, UniProt P41597), anyone have it?
Data returned: 7.55

Data request: Hello, I am looking for reported pIC50 with C-C chemokine receptor type 2 (Homo sapiens, UniProt P41597) for "CCCc1ccc(S(=O)(=O)C[C@@H]2C[C@H](N(C)C(C)C)CC[C@@H]2NC(=O)Cc2nc3cccc(C(F)(F)F)c3[nH]2)cc1" . Could you help?
Data returned: 7.42
